Biological target: Human Testicular 17α-Hydroxylase (Homo sapiens, UniProt P05093)
Construct: incubating human testicular microsomes; from tissue; host or cells: human testis, microsomes
Sequence (P05093 whole entry): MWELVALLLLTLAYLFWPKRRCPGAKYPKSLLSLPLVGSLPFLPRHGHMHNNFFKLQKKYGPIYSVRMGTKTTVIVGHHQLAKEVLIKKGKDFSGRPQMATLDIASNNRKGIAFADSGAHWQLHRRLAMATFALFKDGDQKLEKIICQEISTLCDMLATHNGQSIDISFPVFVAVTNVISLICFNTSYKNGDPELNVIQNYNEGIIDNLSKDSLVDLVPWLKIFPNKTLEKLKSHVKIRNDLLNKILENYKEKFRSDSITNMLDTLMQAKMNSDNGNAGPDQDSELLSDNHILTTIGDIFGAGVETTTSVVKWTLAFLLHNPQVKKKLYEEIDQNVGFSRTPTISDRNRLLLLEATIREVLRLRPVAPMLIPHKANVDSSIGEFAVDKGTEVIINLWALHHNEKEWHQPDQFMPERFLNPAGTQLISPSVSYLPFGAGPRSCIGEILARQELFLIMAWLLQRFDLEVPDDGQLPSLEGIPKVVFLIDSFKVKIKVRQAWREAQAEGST
Test: Inhibition of human testicular 17α-hydroxylase (pregnenolone substrate, testicular microsomes)
Type: biochemical
Settings: IC50 17α-OHase
VALUE_KIND: IC50
Mention the unit after the number when you answer.

CC(=NO)C1=CC[C@H]2[C@@H]3CC=C4C[C@@H](O)CC[C@]4(C)[C@H]3CC[C@]12C [Compound I-5, 16-dehydropregnenolone-20-oxime]	16 nM
C[C@H](O)[C@H]1CC[C@H]2[C@@H]3CCC4=CC(=O)CC[C@]4(C)[C@H]3CC[C@]12C	2840 nM
C[C@@H](O)[C@H]1CC[C@H]2[C@@H]3CC=C4C[C@@H](O)CC[C@]4(C)[C@H]3CC[C@]12C	180 nM
C[C@H](O)[C@H]1CC[C@H]2[C@@H]3CC=C4C[C@@H](O)CC[C@]4(C)[C@H]3CC[C@]12C	720 nM

Continue with the compound presented below.
Inquiry: // query IC50 value for entry CC(=O)C1=CC[C@H]2[C@@H]3CCC4=CC(=O)CC[C@]4(C)[C@H]3CC[C@]12C [Compound L-13, 16-dehydroprogesterone]
Reply text: 73 nM
